Assay: Acute toxicity, single intraperitoneal administration
Type: in vivo
Conditions: male, BDF1 [DBA2 × C57Bl6] hybrid, mouse, in vivo, ip; BDF1 mice, single intraperitoneal administration; doses given in mg/kg
Would you mind telling me the reported MTD at 14 days of each entry?

CN(C)CCCNc1c([N+](=O)[O-])c(Cl)cc2c1no[n+]2[O-].Cl: 5 mg/kg

// next item, MTD at 14 days requested
input: Return reported MTD at 14 days; argument: O=[N+]([O-])c1c(Cl)cc2c(no[n+]2[O-])c1NCCCN1CCOCC1
output: 10 mg/kg

----------
Counter-ions that a name gives are not always drawn.
REPORTED PROPERTY: melting point

Examples with answers:
O=[N+]([O-])c1c(Cl)cc2c(no[n+]2[O-])c1NCCN1CCOCC1 (as salt: chloride) [4d]: 186 to 187 °C
CN(C)Cc1ccccc1Nc1c([N+](=O)[O-])c(Cl)cc2c1no[n+]2[O-].Cl: 125 to 126 °C (dec.)
O=[N+]([O-])c1c(Cl)cc2c(no[n+]2[O-])c1NCCN1CCOCC1 [3d]: 140 to 141 °C
O=[N+]([O-])c1c(Cl)cc2c(no[n+]2[O-])c1NCCN1CCCCC1: 88 to 89 °C
CN(C)Cc1ccc(Nc2c([N+](=O)[O-])c(Cl)cc3c2no[n+]3[O-])cc1: > 300 °C (dec.)

Go through the list and state melting point for each entry.
1. CN(C)Cc1ccccc1Nc1c([N+](=O)[O-])c(Cl)cc2c1no[n+]2[O-]
2. CN(C)Cc1cccc(Nc2c([N+](=O)[O-])c(Cl)cc3c2no[n+]3[O-])c1
3. Cl.O=[N+]([O-])c1c(Cl)cc2c(no[n+]2[O-])c1NCCN1CCCCC1

output:
1. 152 to 153 °C (dec.)
2. 118 to 119 °C
3. 106 to 107 °C

----------
Would you mind telling me the reported IC50 of each entry?
System: Hek 293 (human embryonic kidneys)
Assay: Cell viability, MTT test, normal cell line
Type: cell-based
Conditions: HEK293, Hek 293 normal cells, incubation 72 h, test range 0.1 to 100 μM, read-out: IC50 (concentration causing 50% inhibition of cell population growth)
Number plus unit, in that order.

Examples with answers:
CN(C)Cc1cccc(Nc2c([N+](=O)[O-])c(Cl)cc3c2no[n+]3[O-])c1 [4b]: 27.2 µM
CN(C)Cc1ccccc1Nc1c([N+](=O)[O-])c(Cl)cc2c1no[n+]2[O-].Cl [4a]: 16.1 µM

input: Return reported IC50; argument: O=[N+]([O-])c1c(Cl)cc2c(no[n+]2[O-])c1NCCN1CCOCC1 [4d]
output: 28.1 µM

----------
Tested on: Hek 293 (human embryonic kidneys)
Assay: Cell viability, MTT test, normal cell line
Type: cell-based
Settings: HEK293, Hek 293 normal cells, incubation 24 h, test range 0.1 to 100 μM, read-out: IC50 (concentration causing 50% inhibition of cell population growth)
Method: In this work, the cytotoxic potential of the water-soluble salts based on benzofuroxan was determined by the effect of compounds on the survival of the cell tumor origin cultures (SH-SY5Y, Hep2, A549, HeLa) using the MTT test. To understand how the synthesized compounds can influence the healthy microenvironment in the body, the effect of substances on the viability of a normal Hek 293 cell culture was additionally evaluated. […] Cell viability was determined by MTT test. […]
Would you mind telling me the reported pIC50 of each entry?
Numbers only, as −log10 of the molar value.

O=[N+]([O-])c1c(Cl)cc2c(no[n+]2[O-])c1NCCN1CCOCC1: 4.39

Go through the list and state pIC50 for each entry.
1. CN(C)Cc1cccc(Nc2c([N+](=O)[O-])c(Cl)cc3c2no[n+]3[O-])c1
2. CN(C)Cc1ccccc1Nc1c([N+](=O)[O-])c(Cl)cc2c1no[n+]2[O-].Cl

output:
1. 4.46
2. 4.41

----------
System: barley seeds
Test: Pre-sowing seed treatment, sowing qualities of barley seeds
Format: in vivo
Conditions: 10 mmol, control 95.2
REPORTED PROPERTY: laboratory germination
Number plus unit, in that order.

Examples with answers:
O=[N+]([O-])c1c(Cl)cc2c(no[n+]2[O-])c1NCCN1CCOCC1: 71.4%
O=[N+]([O-])c1c(Cl)cc2c(no[n+]2[O-])c1NCCCN1CCOCC1: 85.7%
CN(C)CCCNc1c([N+](=O)[O-])c(Cl)cc2c1no[n+]2[O-].Cl: 52.3%

// next item, laboratory germination requested
input: Return reported laboratory germination; argument: CN(C)Cc1ccccc1Nc1c([N+](=O)[O-])c(Cl)cc2c1no[n+]2[O-].Cl
output: 99%

----------
Tested on: wheat seeds
Assay: Pre-sowing seed treatment, sowing qualities of wheat seeds
Assay type: in vivo
Settings: 10 mmol, control 85.7
REPORTED PROPERTY: laboratory germination (%)
Give bare numbers, in %.

Examples with answers:
CN(C)Cc1ccccc1Nc1c([N+](=O)[O-])c(Cl)cc2c1no[n+]2[O-].Cl: 96.5
O=[N+]([O-])c1c(Cl)cc2c(no[n+]2[O-])c1NCCCN1CCOCC1: 42.8
O=[N+]([O-])c1c(Cl)cc2c(no[n+]2[O-])c1NCCN1CCOCC1: 47.6

// next item, laboratory germination requested
input: Return reported laboratory germination; argument: CN(C)CCCNc1c([N+](=O)[O-])c(Cl)cc2c1no[n+]2[O-].Cl
output: 47.6

----------
Test system: wheat seeds
Experiment: Pre-sowing seed treatment, sowing qualities of wheat seeds
Type: in vivo
Settings: 10 mmol, control 82
Would you mind telling me the reported germination energy of each entry?
Answers are plain numbers, in %.

O=[N+]([O-])c1c(Cl)cc2c(no[n+]2[O-])c1NCCCN1CCOCC1: 33.3

Go through the list and state germination energy for each entry.
1. O=[N+]([O-])c1c(Cl)cc2c(no[n+]2[O-])c1NCCN1CCOCC1
2. CN(C)CCCNc1c([N+](=O)[O-])c(Cl)cc2c1no[n+]2[O-].Cl
3. CN(C)Cc1ccccc1Nc1c([N+](=O)[O-])c(Cl)cc2c1no[n+]2[O-].Cl

output:
47.6
42.8
97

----------
Would you mind telling me the reported IC50 of each entry?
System: Hep-2 (larynx carcinoma)
Experiment: Cell viability, MTT test
Format: cell-based
Conditions: Homo sapiens, HEp-2; Hep2, incubation 72 h; test range 0.1 to 100 μM; read-out: IC50 (concentration causing 50% inhibition of cell population growth)
One number for each entry, in µM.

O=[N+]([O-])c1c(Cl)cc2c(no[n+]2[O-])c1NCCN1CCOCC1 [4d]: 89.9
CN(C)Cc1cccc(Nc2c([N+](=O)[O-])c(Cl)cc3c2no[n+]3[O-])c1 [4b]: 93.1

input: Return reported IC50; argument: CN(C)Cc1ccccc1Nc1c([N+](=O)[O-])c(Cl)cc2c1no[n+]2[O-].Cl [4a]
output: 90.1

----------
Test system: HeLa (cervical tumor)
Assay: Cell viability, MTT test
Assay type: cell-based
Details: Homo sapiens, incubation 72 h, test range 0.1 to 100 μM, read-out: IC50 (concentration causing 50% inhibition of cell population growth)
Description: In this work, the cytotoxic potential of the water-soluble salts based on benzofuroxan was determined by the effect of compounds on the survival of the cell tumor origin cultures (SH-SY5Y, Hep2, A549, HeLa) using the MTT test. To understand how the synthesized compounds can influence the healthy microenvironment in the body, the effect of substances on the viability of a normal Hek 293 cell culture was additionally evaluated. […] Cell viability was determined by MTT test. […]
REPORTED PROPERTY: IC50 (µM)
One number for each entry, in µM.

Examples with answers:
CN(C)Cc1ccccc1Nc1c([N+](=O)[O-])c(Cl)cc2c1no[n+]2[O-].Cl: 32.9
O=[N+]([O-])c1c(Cl)cc2c(no[n+]2[O-])c1NCCN1CCOCC1: 35.5

input: Return reported IC50; argument: CN(C)Cc1cccc(Nc2c([N+](=O)[O-])c(Cl)cc3c2no[n+]3[O-])c1
output: 38.1

----------
Would you mind telling me the reported germination energy of each entry?
Test system: rice seeds
Test: Pre-sowing seed treatment, sowing qualities of rice seeds
Type: in vivo
Settings: 10 mmol, control 71.4
Give bare numbers, in %.

CN(C)CCCNc1c([N+](=O)[O-])c(Cl)cc2c1no[n+]2[O-].Cl [4g]: 38

Go through the list and state germination energy for each entry.
1. O=[N+]([O-])c1c(Cl)cc2c(no[n+]2[O-])c1NCCN1CCOCC1 [4d]
2. O=[N+]([O-])c1c(Cl)cc2c(no[n+]2[O-])c1NCCCN1CCOCC1 [4e]
3. CN(C)Cc1ccccc1Nc1c([N+](=O)[O-])c(Cl)cc2c1no[n+]2[O-].Cl [4a]

output:
1. 52.3
2. 38
3. 96
